target: Pax6 DNA-binding domain (BD-Pax6) (Mus musculus (B6), UniProt P63015 190-289); experiment: EMSA; 10% glycerol, 20 mM HEPES pH 7.8, 45 mM KCl, 10 mM NaCl, 1 mM EDTA, 1 mM DTT, 0.2 ug/uL BSA, 0.1% NP-40, 50 ng poly-dIdC; 20 ng each GST protein; room temperature 30 min (heterodimers 4 C); 6% PAGE 0.25x TBE; conditions: protein: recombinant; tags: GST (N-terminal, pGEX-6P-1); label: 32P-dCTP fill-in of the 5' (dG)5 overhangs of both strands (Methods; control probes are given with GGG)
Sequence (P63015 190-289): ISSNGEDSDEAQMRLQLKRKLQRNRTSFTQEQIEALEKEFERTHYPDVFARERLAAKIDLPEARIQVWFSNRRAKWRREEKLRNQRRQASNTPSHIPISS
measurementName: binding result

86 (dsDNA) DNA 1: GGGGGAGTTTAGTTTGTAGAGTACTTACCTAGCAGCACAAAGCCCTGCCCCC DNA 2: GGGGGCAGGGCTTTGTGCTGCTAGGTAAGTACTCTACAAACTAAACTCCCCC ... no binding
25 (dsDNA) DNA 1: GGGGGCAGATAACTTTGTCCTTTTTGATTTTGAGTGAAGACCCCC DNA 2: GGGGGTCTTCACTCAAAATCAAAAAGGACAAAGTTATCTGCCCCC ... no binding
22 (dsDNA) DNA 1: GGGGGTACATACAGCAAAATAATCTTTGTAGGGGGGACCCCC DNA 2: GGGGGTCCCCCCTACAAAGATTATTTTGCTGTATGTACCCCC ... no binding
21 (dsDNA) DNA 1: GGGGGCAGAATCATTTGTGTTTTCCCATTTTTGCCAGGGGCCCCC DNA 2: GGGGGCCCCTGGCAAAAATGGGAAAACACAAATGATTCTGCCCCC ... no binding
115 (dsDNA) DNA 1: GGGGGCTGGCCAGACAATGACGATATTTTTTTCCTTCACCCCCC DNA 2: GGGGGGTGAAGGAAAAAAATATCGTCATTGTCTGGCCAGCCCCC ... no binding
69 (dsDNA) DNA 1: GGGGGACAAGTGATTTGTCCTTATCACATAGCTAGGAAAAGGGAATCCCCC DNA 2: GGGGGATTCCCTTTTCCTAGCTATGTGATAAGGACAAATCACTTGTCCCCC ... no binding
41 (dsDNA) DNA 1: GGGGGTTTGGAAAACAAAACATTAACCAAAATTTTCCCCC DNA 2: GGGGGAAAATTTTGGTTAATGTTTTGTTTTCCAAACCCCC ... binds
78 (dsDNA) DNA 1: GGGGGTCTTTTGATTTGTCCGATTTAGGTTTTAAACCCCC DNA 2: GGGGGTTTAAAACCTAAATCGGACAAATCAAAAGACCCCC ... no binding
66 (dsDNA) DNA 1: GGGGGGGAACTCCCTTAAATTTGGTTTGTTTATGTGTCCCCC DNA 2: GGGGGACACATAAACAAACCAAATTTAAGGGAGTTCCCCCCC ... binds
